pKi: −log10 of the molar value.
Below are pKi values recorded for Kappa-type opioid receptor (Homo sapiens).
assay.readout: pKi

- compound: "CN(C)CC1CN(C(=O)Cc2ccc(F)cc2)CCC1(O)c1cccc(O)c1 (configuration not stated)"
  assay.readout: "pKi"
  measurement.qualifier: "="
  experimental.value: 7.38
- compound: "Cc1cccc(CC(=O)N2CCC(O)(c3cccc(O)c3)C(CN(C)C)C2)c1 (configuration not stated)"
  assay.readout: "pKi"
  measurement.qualifier: "="
  experimental.value: 7.13
- compound: "Cc1ccc(CC(=O)N2CCC(O)(c3cccc(O)c3)C(CN(C)C)C2)cc1 (configuration not stated)"
  assay.readout: "pKi"
  measurement.qualifier: "="
  experimental.value: 7.21
- compound: "CN(C)CC1CN(C(=O)Cc2cc(F)c(F)cc2F)CCC1(O)c1cccc(O)c1 (configuration not stated)"
  assay.readout: "pKi"
  measurement.qualifier: "="
  experimental.value: 7.19
- compound: "CN(C)CC1CN(C(=O)Cc2cccc(OC(F)(F)F)c2)CCC1(O)c1cccc(O)c1 (configuration not stated)"
  assay.readout: "pKi"
  measurement.qualifier: "="
  experimental.value: 7.03
- compound: "CN(C)CC1CN(C(=O)Cc2ccccc2)CCC1(O)c1ccccc1 (configuration not stated)"
  assay.readout: "pKi"
  measurement.qualifier: "="
  experimental.value: 5.89
- compound: "COc1cccc(C2(O)CCN(C(=O)Cc3cccc(Br)c3)CC2CN(C)C)c1 (configuration not stated)"
  assay.readout: "pKi"
  measurement.qualifier: "<"
  experimental.value: 5.30
- compound: "CN(C)CC1CN(C(=O)Cc2ccccc2)CCC1(O)c1cccc(O)c1 (configuration not stated)"
  assay.readout: "pKi"
  measurement.qualifier: "="
  experimental.value: 6.77
- compound: "CN(C)CC1CN(C(=O)Cc2cccc(F)c2)CCC1(O)c1cccc(O)c1 (configuration not stated)"
  assay.readout: "pKi"
  measurement.qualifier: "="
  experimental.value: 6.77
- compound: "CN(C)CC1CN(C(=O)Cc2ccccc2F)CCC1(O)c1cccc(O)c1 (configuration not stated)"
  assay.readout: "pKi"
  measurement.qualifier: "="
  experimental.value: 6.62
- compound: "CN(C)CC1CN(C(=O)Cc2ccccc2Cl)CCC1(O)c1cccc(O)c1 (configuration not stated)"
  assay.readout: "pKi"
  measurement.qualifier: "="
  experimental.value: 6.56
- compound: "CN(C)CC1CN(CCc2cccc(C(F)(F)F)c2)CCC1(O)c1cccc(O)c1 (configuration not stated)"
  assay.readout: "pKi"
  measurement.qualifier: "="
  experimental.value: 8.10

----------
- assay.system: Kappa-type opioid receptor (Homo sapiens, UniProt P41145)
- Sequence (P41145 whole entry): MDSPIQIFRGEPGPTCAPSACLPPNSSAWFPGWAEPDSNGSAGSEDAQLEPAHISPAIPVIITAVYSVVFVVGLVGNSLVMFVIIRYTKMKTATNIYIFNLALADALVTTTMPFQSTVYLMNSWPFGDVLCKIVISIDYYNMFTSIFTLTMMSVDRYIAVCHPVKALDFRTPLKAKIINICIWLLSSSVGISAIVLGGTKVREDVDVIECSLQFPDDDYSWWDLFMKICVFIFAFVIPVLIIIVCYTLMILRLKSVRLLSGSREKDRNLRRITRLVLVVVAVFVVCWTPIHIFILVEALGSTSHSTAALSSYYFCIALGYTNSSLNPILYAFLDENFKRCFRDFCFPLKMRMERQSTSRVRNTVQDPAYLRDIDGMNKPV
- assay.remarks: Agonist activity at KOR (unknown origin) expressed in CHO cell membranes assessed as stimulation of [35S]GTPgammaS binding measured after 60 mins by liquid scintillation counting analysis
Mark condition met only when EC50 stays strictly below 0.3 µM. Values equal to the cut-off are condition not met.

- compound: "CN(C)C[C@H]1CN(C(=O)Cc2cc(F)c(F)cc2F)CC[C@]1(O)c1cccc(O)c1"
  class.name: "condition not met"
- compound: "CN(C)CC1CN(C(=O)Cc2cccc(Cl)c2)CCC1(O)c1cccc(O)c1 (stereo unspecified)"
  class.name: "condition not met"
- compound: "CN(C)C[C@@H]1CN(C(=O)Cc2cc(F)c(F)cc2F)CC[C@@]1(O)c1cccc(O)c1"
  class.name: "condition not met"
- compound: "CN(C)CC1CN(C(=O)CCc2cccc(C(F)(F)F)c2)CCC1(O)c1cccc(O)c1 (stereo unspecified)"
  class.name: "condition met"
- compound: "CN(C)CC1CN(CCc2cccc(C(F)(F)F)c2)CCC1(O)c1cccc(O)c1 (stereo unspecified)"
  class.name: "condition met"
- compound: "CN(C)CC1CN(C(=O)Cc2cc(F)c(F)cc2F)CCC1(O)c1cccc(O)c1 (stereo unspecified)"
  class.name: "condition met"
